Catalogue of compounds with associated LD50 at 336 h
Experiment: in vivo
Conditions: mouse, oral, Swiss mice, 14 days observation
RESULT TYPE: LD50 at 336 h

>  <COMPOUND>
C[N+]1(CC(=O)N2c3ccccc3C(=O)Nc3cccnc32)CCCCC1

>  <MEASUREMENT>
> 500 mg/kg

$$$$
>  <COMPOUND>
C[N+](C)(C)CC(=O)N1c2ccccc2C(=O)Nc2cccnc21

>  <MEASUREMENT>
< 500 mg/kg

$$$$
>  <COMPOUND>
C[N+]1(C)CC[N+](C)(CC(=O)N2c3ccccc3C(=O)Nc3cccnc32)CC1

>  <MEASUREMENT>
> 500 mg/kg

$$$$
>  <COMPOUND>
C[N+]1(CCC(=O)N2c3ccccc3C(=O)Nc3cccnc32)CCCCCC1

>  <MEASUREMENT>
> 500 mg/kg

$$$$
>  <COMPOUND>
CC(C)(C)C(=O)OC[N+]1(C)CCC(C(=O)N2c3ccccc3C(=O)Nc3cccnc32)CC1 (centres unmarked)

>  <MEASUREMENT>
> 500 mg/kg

$$$$

###

Examples of compounds with documented % Antisecretory activity follow.
System: gastric acid secretion
Experiment: Gastric acid secretion in the pylorus ligated rat (antisecretory activity)
Assay type: in vivo, rat (male Sprague-Dawley)
Conditions: 25 mg/kg p.o., 4 hours

>  <COMPOUND>
C[N+](C)(C)CC(=O)N1c2ccccc2C(=O)Nc2cccnc21

>  <TGT>
gastric acid secretion

>  <QUANTITY UNIT>
%

>  <% Antisecretory activity>
35.9

$$$$
>  <COMPOUND>
C[N+]1(C)CC[N+](C)(CC(=O)N2c3ccccc3C(=O)Nc3cccnc32)CC1

>  <TGT>
gastric acid secretion

>  <QUANTITY UNIT>
%

>  <% Antisecretory activity>
20.4

$$$$
>  <COMPOUND>
C[N+]1(CCC(=O)N2c3ccccc3C(=O)Nc3cccnc32)CCCCCC1

>  <TGT>
gastric acid secretion

>  <QUANTITY UNIT>
%

>  <% Antisecretory activity>
69.6

$$$$
>  <COMPOUND>
C[N+]1(CC(=O)N2c3ccccc3C(=O)Nc3cccnc32)CCCCC1

>  <TGT>
gastric acid secretion

>  <QUANTITY UNIT>
%

>  <% Antisecretory activity>
70.3

$$$$
>  <COMPOUND>
CC(C)(C)C(=O)OC[N+]1(C)CCC(C(=O)N2c3ccccc3C(=O)Nc3cccnc32)CC1 (centres unmarked)

>  <TGT>
gastric acid secretion

>  <QUANTITY UNIT>
%

>  <% Antisecretory activity>
41.8

$$$$
